Sourced from ChEMBL document CHEMBL4251705

measurement_target: Bromodomain-containing protein 4 (Homo sapiens)
run_description: Binding affinity to human His6-tagged BRD4 BD1 (N44 to E168 residues) expressed in Escherichia coli BL21 (DE3) cells by isothermal titration calorimetry method
pKd: −log10 of the molar value.
The compounds listed here are annotated with their pKd.
recorded_metric: pKd

1) COc1cc2c(cc1NS(=O)(=O)c1cc(Br)ccc1OC)OC(C)(C)C(=O)N2 = 6.52
2) COc1ccc(Br)cc1S(=O)(=O)Nc1cc2c(cc1O)NC(=O)C(C)(C)O2 = 6.30

* * *

Test system: PC-3
run_description: Antiproliferative activity against human PC3 cells after 96 hrs by Cell-Titer glo reagent based luminescence assay
Format: functional
conditions_used: PC-3, 96 h
recorded_metric: IC50 (µM)

1. CC1(C)Oc2cc(NS(=O)(=O)c3ccc(F)cc3Cl)ccc2NC1=O = 26.9
2. CC1(C)Oc2cc(NS(=O)(=O)C3CCCCC3)ccc2NC1=O = 30.4
3. COc1cc2c(cc1NS(=O)(=O)c1cc(Br)ccc1OC)OC(C)(C)C(=O)N2 = 17.2
4. COc1ccc(Br)cc1S(=O)(=O)Nc1cc2c(cc1O)NC(=O)C(C)(C)O2 = 22.9
5. CC1(C)Oc2cc(NS(=O)(=O)c3ccccc3)ccc2NC1=O = 40.1
6. COc1ccc(Br)cc1S(=O)(=O)Nc1ccc2c(c1)OC(C)(C)C(=O)N2 = 21
